# clearance values compiled below
Test: Pharmacokinetics study of cassette drug administration in vivo
Parameters: species or system CD-1 male mice
Details: male, mouse, plasma, iv, injection (1 mg/kg), CD-1 mice
Description: Experimental Embodiment 2: Pharmacokinetics Study of Cassette Drug Administration in Vivo […] On the day of the experiment, animals in the intravenous group were given a single injection of the corresponding compound through the tail vein with a volume of 5 mL/kg; the oral group was given the corresponding compound by a single gavage with a volume of 5 mL/kg. The animals were weighed before administration, and the administration volume was calculated according to the body weight. […]
value kind: clearance

* Cc1cc(Oc2ccnc(Nc3cccc(C(N)=O)c3)c2)n(C2CCOCC2)n1 [Compound 14] | 2.22 L/h/kg
* Cc1cccc(-n2nc(C)cc2Oc2ccnc(Nc3cccc(C(N)=O)c3)c2)n1 [Compound 6] | 1.49 L/h/kg
* Cc1cccc(-c2nn3c(c2-c2ccnc4ccc(C(N)=O)cc24)CCC3)n1 [Compound A, Galunisertib, reference compound] | 2.24 L/h/kg

====

# Cmax values compiled below
Assay: Pharmacokinetics study of cassette drug administration in vivo
Parameters: species or system CD-1 male mice
Settings: male, mouse, plasma, oral (1.5 mg/kg), CD-1 mice
value kind: Cmax (nM)

- Cc1cc(Oc2ccnc(Nc3cccc(C(N)=O)c3)c2)n(C2CCOCC2)n1: 567
- Cc1cccc(-c2nn3c(c2-c2ccnc4ccc(C(N)=O)cc24)CCC3)n1 [Compound A, Galunisertib, reference compound]: 712
- Cc1cccc(-n2nc(C)cc2Oc2ccnc(Nc3cccc(C(N)=O)c3)c2)n1: 804

====

Experiment: Pharmacokinetic studies in vivo (single compound)
Parameters: species or system CD-1 male mice
Conditions: male, mouse, plasma; oral, 5 mg/kg, CD-1 mice
value kind: AUC(0-t) (µM·h)

- Cc1cccc(-c2nn3c(c2-c2ccnc4ccc(C(N)=O)cc24)CCC3)n1 [Compound A, Galunisertib, reference compound]: 1.37

====

Assay: Pharmacokinetic studies in vivo (single compound)
Parameters: species or system CD-1 male mice
Conditions: male, mouse, plasma; oral, 2.5 mg/kg, CD-1 mice
value kind: AUC(0-t) (µM·h)

- Cc1cc(Oc2ccnc(Nc3cccc(C(N)=O)c3)c2)n(C2CCOCC2)n1: 2.7

====

Test: Pharmacokinetics study of cassette drug administration in vivo
Set-up: species or system CD-1 male mice
Details: male, mouse, plasma, iv, injection (1 mg/kg), CD-1 mice
# AUC(0-t) values compiled below
value kind: AUC(0-t) (µM·h)

- Cc1cccc(-n2nc(C)cc2Oc2ccnc(Nc3cccc(C(N)=O)c3)c2)n1 [Compound 6]: 1.81
- Cc1cc(Oc2ccnc(Nc3cccc(C(N)=O)c3)c2)n(C2CCOCC2)n1 [Compound 14]: 1.06
- Cc1cccc(-c2nn3c(c2-c2ccnc4ccc(C(N)=O)cc24)CCC3)n1 [Compound A, Galunisertib, reference compound]: 1.15

# credit: patent US12325695B2
